The reported measurements were obtained from ChEMBL document CHEMBL1201862.

Tested on: UO-31
Assay Text: NCI tumour cell line growth inhibition, 48 h
Activity calls are given as the source filed them. Cut-off read from the data, not from the text of the source: active = GI50 up to about 1.1 µM and inactive = higher.
Give GI50 for every item shown.

Here is how some compounds turned out for GI50.
compound=COC(=O)[C@@H]1[C@H](O)CCC2=C(CC(=O)c3ccoc3)[C@H](C)CC[C@]21C quantity_name=GI50 assay_value="19.5 µM (inactive)"
compound=Cc1cn2c(/C=C3/C(=O)Nc4cccc(Cl)c43)c(Cl)nc2s1 quantity_name=GI50 assay_value="> 100 µM (inactive)"

Consider the following items and state reported GI50 for each.
1. COC(=O)c1csc(-c2csc(CCNC(=O)OC(C)(C)C)n2)n1
2. Cc1ccc(Nc2n[nH]c(=S)s2)cc1C
3. CN(C)/C=N/c1ccc2nonc2c1
4. Cc1ccc(SC(=O)N2C(=S)N=C(NC3CCCCC3)C23CCCCC3)cc1
5. CCCC(O)C(NC(=O)CCl)C(=O)O (stereo unspecified)
6. CO/C(=N\N=C(/C)C(F)(F)F)c1ccncc1
7. COc1cc2cc3c4c(cc(OC)c(OC)c4c2cc1OC)CCN3C
8. O=C(c1cc(Cl)cc(Cl)c1)N(C(=O)N1CCN(c2ccccc2)CC1)c1ccccc1

(A)
["> 100 µM (inactive)", "> 100 µM (inactive)", "> 100 µM (inactive)", "46.6 µM (inactive)", "> 100 µM (inactive)", "> 100 µM (inactive)", "2.11 µM (inactive)", "18.7 µM (inactive)"]

(Q) // query GI50 value for entry `CN1C(=O)C(=Cc2ccc(Br)cc2)C(=O)N(C)C1=O`
(A) > 100 µM (inactive)

---

System: SF-295
Assay Text: NCI tumour cell line growth inhibition, 48 h
The source made the active and inactive calls. Rule as the data show it: active = GI50 up to about 1.1 µM and inactive = higher.
// one of true = active, false = inactive, no free text

Answered examples (4):
compound=C[C@@H](N[C@H]1CCC[C@@H]1O)c1ccccc1.C[C@@H](N[C@H]1CCC[C@H]1O)c1ccccc1 cat=false
compound=Cc1cccc(-c2cc(O)c3cc(C)cnc3n2)c1 cat=true
compound="CC(=O)OCC1OC(n2c(C#N)cc(=O)[nH]c2=O)CC1OC(C)=O (configuration not stated)" cat=false
compound=C=CCOCn1cc(F)c(=O)[nH]c1=O cat=false

Turning now to a further compound:
(Q) Short answer needed: outcome of this test for Cc1ccc(OCC2OC(n3cnc4nc(N)nc(Cl)c43)CC2Oc2ccc(C)cc2)cc1 (configuration not stated) ?
(A) false

---

Tested on: HL-60
Assay Text: NCI tumour cell line growth inhibition, 48 h
Calls of active or inactive are those of the source. No stated cut-off is given here; in the data, active = GI50 up to about 1.1 µM and inactive = higher.
// one of active, inactive, no free text

Answered examples (8):
compound="Cc1cccc2c1Oc1ccccc1C2NC(=O)c1ccc([N+](=O)[O-])cc1 (stereo not drawn)" cat=inactive
compound=NNC(=S)N/N=C(\CCCC(=O)NCCc1ccccc1)CC(=O)c1ccccc1 cat=inactive
compound=CCOC(=O)c1ccc2c(=O)n3c(C(=O)OCC)ccc3c(=O)n12 cat=inactive
compound="COc1cccc(NC(=O)CC(=O)N2N=C(N(CCC#N)c3ccccc3C)CC2c2ccccc2)c1 (stereo not drawn)" cat=inactive
compound="O=C1Nc2ccccc2C1Cc1ccc([N+](=O)[O-])cc1 (stereo not drawn)" cat=inactive
compound="C#CCOC(=O)C(N)CSSCC(N)C(=O)O (stereo not drawn)" cat=inactive
compound=O=C(Sc1c(-c2ccccc2)c(=O)n(-c2ccccc2)c(=S)n1-c1ccccc1)c1ccccc1 cat=inactive
compound=COc1c(O)cc2c(c1O)C(=O)C1=C(CCCC1)C2=O cat=inactive

Turning now to a further compound:
(Q) Short answer needed: outcome of this test for `Cc1ccc(Nc2n[nH]c(=S)s2)cc1C` ?
(A) inactive
